- System: 327498-153-R-J2-PDC complex spheroid growth, % test/control
- assay notes: Anticancer human tumor 327498-153-R-J2-PDC patient-derived uterine carcinosarcoma cell line growth inhibition [Asc]
- conditions used: second compound 0.0316 µM; first compound 0.1 µM; stronger effect = lower value
assay readout: viability, T/C

These recorded examples may help you get a feel for the data.
| molecule | measured |
| --- | --- |
| C#Cc1c(F)ccc2cc(O)cc(-c3ncc4c(N5CC6CCC(C5)N6)nc(OCC56CCCN5CC(F)C6)nc4c3F)c12 (stereo not drawn) + CNC(C)C(=O)NC1CN(S(=O)(=O)c2cccc(S(=O)(=O)N3CCC4CCC(C(=O)NC(c5ccccc5)c5ccccc5)N4C(=O)C(NC(=O)C(C)NC)C3)c2)CCC2CCC(C(=O)NC(c3ccccc3)c3ccccc3)N2C1=O | 97.3% |
| C=CC(=O)N1CCN(c2nc(=O)n(-c3c(C)ccnc3C(C)C)c3nc(-c4c(O)cccc4F)c(F)cc23)C(C)C1 (stereo not drawn) + CNC(C)C(=O)NC1CN(S(=O)(=O)c2cccc(S(=O)(=O)N3CCC4CCC(C(=O)NC(c5ccccc5)c5ccccc5)N4C(=O)C(NC(=O)C(C)NC)C3)c2)CCC2CCC(C(=O)NC(c3ccccc3)c3ccccc3)N2C1=O | 77.9% |

Alright, here's another molecule for you.
Ask | Tell me reported viability, T/C for CCN1CCN(Cc2ccc(Nc3ncc(F)c(-c4cc(F)c5nc(C)n(C(C)C)c5c4)n3)nc2)CC1 + CNC(C)C(=O)NC1CN(S(=O)(=O)c2cccc(S(=O)(=O)N3CCC4CCC(C(=O)NC(c5ccccc5)c5ccccc5)N4C(=O)C(NC(=O)C(C)NC)C3)c2)CCC2CCC(C(=O)NC(c3ccccc3)c3ccccc3)N2C1=O , tested with 327498-153-R-J2-PDC complex spheroid growth, % test/control.
Reply | 82.4%

* * *

Reported viability, T/C values are given for each entry in this list.
- Test system: 327498-153-R-J2-PDC complex spheroid growth, % test/control
- assay notes: Anticancer human tumor 327498-153-R-J2-PDC cell line growth inhibition [Asc];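 note: spheroids exposed to compound for 7 days after 3 days of growth; 100% = DMSO vehicle control wells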
- conditions used: second compound 0.0316 µM; first compound 0.00316 µM; stronger effect = lower value
Express the result in % but write the number alone.

| molecule | measured |
| --- | --- |
| NC1CCC(NC2CC2c2ccccc2)CC1 (configuration not stated) + CNC(C)C(=O)NC1CN(S(=O)(=O)c2cccc(S(=O)(=O)N3CCC4CCC(C(=O)NC(c5ccccc5)c5ccccc5)N4C(=O)C(NC(=O)C(C)NC)C3)c2)CCC2CCC(C(=O)NC(c3ccccc3)c3ccccc3)N2C1=O | 101 |

Alright, here's another molecule for you.
Ask | So what does the record say about viability, T/C for Cn1ncnc1[C@H]1c2n[nH]c(=O)c3cc(F)cc(c23)N[C@@H]1c1ccc(F)cc1 + CNC(C)C(=O)NC1CN(S(=O)(=O)c2cccc(S(=O)(=O)N3CCC4CCC(C(=O)NC(c5ccccc5)c5ccccc5)N4C(=O)C(NC(=O)C(C)NC)C3)c2)CCC2CCC(C(=O)NC(c3ccccc3)c3ccccc3)N2C1=O ?
Reply | 98.2

* * *

- Test system: 327498-153-R-J2-PDC complex spheroid growth, % test/control
- assay notes: Anticancer human tumor 327498-153-R-J2-PDC cell line growth inhibition [Asc];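 note: spheroids exposed to compound for 7 days after 3 days of growth; 100% = DMSO vehicle control wells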
- conditions used: second compound 0.0316 µM; first compound 0.00316 µM; stronger effect = lower value
Reported viability, T/C values are given for each entry in this list.
Express the result in % but write the number alone.

Ask | So what does the record say about viability, T/C for O=C(c1ccc(F)c(F)c1Nc1ccc(I)cc1F)N1CC(O)([C@@H]2CCCCN2)C1 + CNC(C)C(=O)NC1CN(S(=O)(=O)c2cccc(S(=O)(=O)N3CCC4CCC(C(=O)NC(c5ccccc5)c5ccccc5)N4C(=O)C(NC(=O)C(C)NC)C3)c2)CCC2CCC(C(=O)NC(c3ccccc3)c3ccccc3)N2C1=O ?
Reply | 104

Ask | Queued: CCN1CCN(Cc2ccc(Nc3ncc(F)c(-c4cc(F)c5nc(C)n(C(C)C)c5c4)n3)nc2)CC1 + CNC(C)C(=O)NC1CN(S(=O)(=O)c2cccc(S(=O)(=O)N3CCC4CCC(C(=O)NC(c5ccccc5)c5ccccc5)N4C(=O)C(NC(=O)C(C)NC)C3)c2)CCC2CCC(C(=O)NC(c3ccccc3)c3ccccc3)N2C1=O
Reply | 106

Ask | Queued: COc1c(OCCCN2CCOCC2)ccc2c3n(c(=NC(=O)c4cnc(N)nc4)nc12)CCN3 + CNC(C)C(=O)NC1CN(S(=O)(=O)c2cccc(S(=O)(=O)N3CCC4CCC(C(=O)NC(c5ccccc5)c5ccccc5)N4C(=O)C(NC(=O)C(C)NC)C3)c2)CCC2CCC(C(=O)NC(c3ccccc3)c3ccccc3)N2C1=O
Reply | 96.7
